B1: LINE1-mini (parent)
chain: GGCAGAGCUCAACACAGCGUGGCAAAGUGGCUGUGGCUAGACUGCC

Variants of: B1
Measurement Protocol: self-cleavage, relative activity (ratio to wild type); higher = more cleavage; in vitro, sequencing; the parent is a self-cleaving ribozyme
Would you mind telling me the reported self-cleavage of each entry?
Form rule: numeric answer, no unit written next to it.

Documented self-cleavage of A11U G35A : 0.04

self-cleavage reading for A16C G29U : 0.55

G30U C42U has a reported self-cleavage of 0.32

Lab note: measured self-cleavage of C15G G22C was 0.03

Reported self-cleavage of G5C C18G : 0.04

Entry under test: C23U U34G . Its self-cleavage was 0.3

G5A A26U yielded self-cleavage of 0.19

Value of measured self-cleavage for the entry C15A C18G : 0.09

Quick note, self-cleavage for G2C A12C landed at 0.02

For this variant ( C15G U32G ), measured self-cleavage is 0.04

// self-cleavage value for G22U C37A : 0.06

Lab note: A16G A26C gave self-cleavage of 0.84

GET /value?item= G7U A25G &field=self-cleavage returns 0.1

Short answer for C23G U34A : self-cleavage was 0.09

Entry A4C A25G , self-cleavage reported as 0.12

// field: self-cleavage; key: G21U C45A ; value = 0.68

For this variant ( G17U C18A ), measured self-cleavage is 0.18

So for C8U A16G , the logged self-cleavage turned out to be 0.16

self-cleavage reading for C10G U28C : 0.12

Please fill in: self-cleavage reported for A24U G30A = 0.97

Value of self-cleavage reported for the variant G2A A4C is 0.67

Entry G17C A41U ; self-cleavage = 0.49

Memo: A11C C15U , reported self-cleavage: 0.03

C8A G36C yielded self-cleavage of 0.29

Summary for this variant, G33C G40A : self-cleavage is 0.05

Sure, the documented self-cleavage for U9A G29U is 0.15

What the record says about A4G G7A : self-cleavage is 0.25

# self-cleavage of C13U G22A = 0.13

Summary for this variant, G35U C46G : self-cleavage is 0.09

Lookup result for G17C U20C ; measured self-cleavage: 0.66

Sure, the documented self-cleavage for C8U G40A is 0.41

Lab note: measured self-cleavage of G17U U34G was 0.04

What the record says about G5C G22C : self-cleavage is 0.13

variant A6G G19U , self-cleavage observed: 0.15

Reported self-cleavage of U20G A39U : 0.56

The variant C8G C46U showed self-cleavage equal to 0.09

Value of self-cleavage reported for the variant C3U G27C is 0.2

The recorded self-cleavage for G21C G36U is 0.03

Noted for C10A G33A : its self-cleavage reads 0.04

Briefly, self-cleavage measured for G21C G36C : 0.03

Entry C23A C31A , self-cleavage reported as 0.26

Lookup result for C15U U32A ; measured self-cleavage: 0.09

Record G19U C42A , field self-cleavage: 0.14

// self-cleavage value for A16C G21C : 0.22

# self-cleavage (variant: `U34G` ) is 0.24

The reported self-cleavage of the variant C8U U38C was 0.22

# self-cleavage (variant: G27U C42A ) is 0.17
